- MEASUREMENT TARGET: UniProtKB P29274
- Sequence (P29274 whole entry): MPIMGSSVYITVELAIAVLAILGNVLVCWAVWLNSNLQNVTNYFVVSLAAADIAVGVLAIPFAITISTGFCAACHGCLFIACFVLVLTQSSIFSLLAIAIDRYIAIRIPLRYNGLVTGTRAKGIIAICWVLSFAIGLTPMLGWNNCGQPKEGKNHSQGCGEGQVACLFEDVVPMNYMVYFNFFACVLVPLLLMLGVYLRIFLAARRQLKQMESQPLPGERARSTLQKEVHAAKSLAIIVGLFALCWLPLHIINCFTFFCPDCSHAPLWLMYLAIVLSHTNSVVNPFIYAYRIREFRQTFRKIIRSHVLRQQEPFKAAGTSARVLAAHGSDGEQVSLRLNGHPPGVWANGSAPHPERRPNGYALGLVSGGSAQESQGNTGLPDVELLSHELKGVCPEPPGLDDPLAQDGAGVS
pKi: −log10 of the molar value. Structures can show the parent of a compound that is named as a salt.
Measured pKi of individual entries
ENDPOINT NAME: pKi

- CCc1nnn([C@H]2C[C@@H](n3cnc4c(NCC(c5ccccc5)c5ccccc5)nc(N5CC[C@@H](NC(=O)NC6CCN(c7ccccn7)CC6)C5)nc43)[C@H](O)[C@@H]2O)n1: 7.77
- CCc1cnn([C@H]2C[C@@H](n3cnc4c(NCC(c5ccccc5)c5ccccc5)nc(N5CC[C@@H](NC(=O)Nc6ccncc6)C5)nc43)[C@H](O)[C@@H]2O)n1 [Example 127, hydrochloride]: 8.52
- CCc1nnn([C@H]2C[C@@H](n3cnc4c(NCC(c5ccc(O)cc5)c5ccc(O)cc5)nc(N5CC[C@@H](NC(=O)Nc6ccncc6)C5)nc43)[C@H](O)[C@@H]2O)n1 [Example 109, hydrochloride]: 8.30
- CCCCC#Cc1nc(N)c2ncn([C@@H]3C[C@H](n4cc(CO)cn4)[C@@H](O)[C@H]3O)c2n1: 7.17
- CCc1nnn([C@H]2C[C@@H](n3cnc4c(NCC(c5ccccc5)c5ccccc5)nc(N5CC[C@@H](NC(=O)NCc6ccnc7ccccc67)C5)nc43)[C@H](O)[C@@H]2O)n1 [Example 150, hydrochloride]: 8.22
- CCc1nnn([C@H]2C[C@@H](n3cnc4c(NCC(c5ccccc5)c5ccccc5)nc(N5CC[C@@H](NC(=O)Nc6cccc(-c7nnn[nH]7)c6)C5)nc43)[C@H](O)[C@@H]2O)n1 [Example 157, hydrochloride]: 8.52
- O=C(NC1CCN(c2ccccn2)CC1)N[C@@H]1CCN(c2nc(NCC(c3ccccc3)c3ccccc3)c3ncn([C@@H]4C[C@H](n5cc(CO)cn5)[C@@H](O)[C@H]4O)c3n2)C1 [Example 77, trifluoroacetate]: 7.70
- CCCCC#Cc1nc(N)c2ncn([C@@H]3C[C@H](n4cc(CC)cn4)[C@@H](O)[C@H]3O)c2n1: 6.92
- Cc1nnn([C@H]2C[C@@H](n3cnc4c(NCC(c5ccccc5)c5ccccc5)nc(N5CC[C@@H](NS(C)(=O)=O)C5)nc43)[C@H](O)[C@@H]2O)n1: 7.15
- Cc1cnn([C@H]2C[C@@H](n3cnc4c(NCC(c5ccccc5)c5ccccc5)nc(NC5CCC(N)CC5)nc43)[C@H](O)[C@@H]2O)c1 (some centres unmarked) [Example 1, trifluoroacetate]: 6.71
- O=C(NC1CCN(c2ccc(C(=O)O)cn2)CC1)N[C@@H]1CCN(c2nc(NCC(c3ccccc3)c3ccccc3)c3ncn([C@@H]4C[C@H](n5cc(CO)cn5)[C@@H](O)[C@H]4O)c3n2)C1 [Example 86, trifluoroacetate]: 7.40
